System: TK-10 renal
Test: NCI tumour cell line growth inhibition, 48 h
Measurement label: TGI

Could you please provide reported TGI for N#CC(c1ccccc1)c1nc2ccc(=N)cc-2n(O)c1C(C#N)c1ccccc1 (stereo not given) ? Thanks! > 100 µM

State, in one line, measured TGI of Cc1ccc(N2C(=O)C3c4[nH]c5ccccc5c4C4CCC(C(C)(C)C)CC4C3C2=O)cc1 (stereo not given) 15.7 µM

Check the records and state TGI for Cc1sc(Cc2ccccc2)nc1-c1ccc(N)cc1 > 100 µM

Return TGI (reported value) for this compound: COc1cc2nc(N3CCCC3)nc(NCC3CCCCC3)c2cc1OC 3.28 µM

# return recorded TGI for input CN(/N=C(\C(=O)O)c1ccccc1)C1=NCCCN1 > 100 µM

Provide one value: measured TGI of CCCn1c(C)nc2c1C(=O)c1ccccc1C2=O > 100 µM

Identify measured TGI corresponding to Brc1cccc(C2SCc3nc4ccccc4n32)c1 (stereo not given) 65.1 µM

Entry CCOC(=O)c1nc2ccc([N+](=O)[O-])cc2c2c1CCO2 needs its TGI filled in; supply it. > 100 µM

Given CCOC(=O)C1=C(O)C(=O)c2ccsc2C1=O , respond with its TGI. > 100 µM

Report measured TGI; entry is Fc1ccc2nc3n(c2c1)C(c1c(F)cccc1F)SC3 (stereo not given) > 100 µM
